Cited source: patent US6423519B1

# Target Under Test: Hu FT (Homo sapiens)
# Measurement Notes: Human FT inhibition (Hu FT)
# Format: biochemical
# Test Parameters: Table 3 Piperidine Analogs
Reported IC50 is given for each of the following compounds.

Check out these entries, answers already filled in.
{"Compound": "N[C@@H](CS)C(=O)N1CCC(C(=O)NC2c3ccccc3-c3ccccc32)(c2ccccc2)CC1 [Compound 53z]", "Target Under Test": "Hu FT (Homo sapiens)", "Metric": "IC50", "Result": "> 1000 nM"}
{"Compound": "N[C@@H](CS)C(=O)N1CCC(C(=O)N[C@@H]2C[C@H]2c2ccccc2)(c2ccccc2)CC1 (relative stereo) [Compound 53v]", "Target Under Test": "Hu FT (Homo sapiens)", "Metric": "IC50", "Result": "> 1000 nM"}
{"Compound": "N[C@@H](CS)C(=O)N1CCC(C(=O)NCc2cccc(-c3ccccc3)c2)(c2ccccc2)CC1 [Compound 53e]", "Target Under Test": "Hu FT (Homo sapiens)", "Metric": "IC50", "Result": "> 1000 nM"}

Can you look up the measured IC50 of N[C@@H](CS)C(=O)N1CCC(C(=O)NCc2cccc3ccccc23)(c2ccccc2)CC1 [Compound 53w] for me? > 1000 nM

// returns reported IC50 for input N[C@@H](CS)C(=O)N1CCC(C(=O)NCc2ccc(F)cc2F)(c2ccccc2)CC1 [Compound 53r] > 1000 nM

Reported IC50, compound N[C@@H](CS)C(=O)N1CCC(C(=O)NCc2nc3ccccc3[nH]2)(c2ccccc2)CC1 [Compound 53h] : ____ > 1000 nM

Give the measured IC50 of N[C@@H](CS)C(=O)N1CCC(C(=O)NCc2ccc3c(c2)OCO3)(c2ccccc2)CC1 [Compound 53q] . > 1000 nM
